- test: Stability of the compounds: buffer hydrolysis (half-times, shelf-life)
- Format: physicochemical
- protocol.conditions: buffer, pH 6
measured.property: half-life (days)

[[record]]
molecule = "CC[C@H](C(=O)OCc1ccccc1)[C@H](COC(=O)CCCCC(=O)OC[C@H](Cc1cncn1C)[C@H](CC)C(=O)OCc1ccccc1)Cc1cncn1C [Example 15, O,O'-Adipoyl (dibenzyl) bispilocarpate]"
measured = 68.6


[a] CC[C@H](C(=O)OCc1ccc(COC(=O)[C@@H](CC)[C@H](COC(C)=O)Cc2cncn2C)cc1)[C@H](COC(C)=O)Cc1cncn1C
[b] CC[C@H](C(=O)OCc1ccccc1)[C@H](COC(=O)CCC(=O)OC[C@H](Cc1cncn1C)[C@H](CC)C(=O)OCc1ccccc1)Cc1cncn1C [Example 17, O,O'-Succinyl (dibenzyl) bispilocarpate]
[c] CC[C@H](C(=O)OCc1ccccc1)[C@H](COC(=O)/C=C/C(=O)OC[C@H](Cc1cncn1C)[C@H](CC)C(=O)OCc1ccccc1)Cc1cncn1C [Example 18, O,O'-Fumaroyl (dibenzyl) bispilocarpate]
q: Please produce an ascending ranking of these molecules based on half-life. Use the labels to give the ranking in the order requested.
a: c, a, b

====

- test: Stability of the compounds: buffer hydrolysis (half-times, shelf-life)
- Format: physicochemical
- protocol.conditions: buffer pH 9.00, ionic strength 0.5, 37°C; read-out: Half-times in buffers at 37°C, T½, pH 9.00 (converted)
measured.property: half-life (h)

A selection of reference data follows.
[[record]]
compound = "CC[C@H](C(=O)OCc1cccc(COC(=O)[C@@H](CC)[C@H](CO)Cc2cncn2C)c1)[C@H](CO)Cc1cncn1C"
measured = 0.0183

[[record]]
compound = "CC[C@H](C(=O)OCc1ccccc1)[C@H](COC(C)=O)Cc1cncn1C [acetyl, benzyl, reference compound]"
measured = 79


[1] CC[C@H](C(=O)OCCCCCOC(=O)[C@@H](CC)[C@H](CO)Cc1cncn1C)[C@H](CO)Cc1cncn1C
[2] CC[C@H](C(=O)OCc1ccc(COC(=O)[C@@H](CC)[C@H](CO)Cc2cncn2C)cc1)[C@H](CO)Cc1cncn1C
[3] CC[C@H](C(=O)OCc1ccccc1)[C@H](COC(=O)c1ccc(C(=O)OC[C@H](Cc2cncn2C)[C@H](CC)C(=O)OCc2ccccc2)cc1)Cc1cncn1C
q: Please produce an ascending ranking of these compounds based on half-life. Use the labels to give the ranking in the order requested.
a: 2, 1, 3
(2: 0.0317 h, 1: 0.233 h, 3: 38 h)

====

- test: Enzyme hydrolysis in plasma/buffer pH 7.4 mixture (80%-20%)
- Assay type: in vitro ADME
- protocol.conditions: 80% plasma/buffer; plasma/buffer pH 7.4 (80%-20%), 37°C; read-out: half-times (T½) in plasma (80%), 37°C
- Protocol: The half-times of enzyme hydrolysis of the novel bispilocarpates according to the invention and of known pilocarpic acid diesters were determined in a plasma/buffer pH 7.4-mixture (80%-20%) at 37°C. The degradation constants (k) for the compounds tested and determined from the plot showing the logarithm of remaining diester as a function of time and the half-lives T½ are shown in the Table II below. […]
measured.property: half-life (min)

A selection of reference data follows.
[[record]]
molecule = "CCCCCCCC(=O)OC[C@H](Cc1cncn1C)[C@H](CC)C(=O)OCc1ccccc1 [octanoyl, benzyl, reference compound]"
measured_property = "half-life"
unit_descriptor = "min"
measured = 27

[[record]]
molecule = "CC[C@H](C(=O)OCCCCCCOC(=O)[C@@H](CC)[C@H](COC(=O)C1CC1)Cc1cncn1C)[C@H](COC(=O)C1CC1)Cc1cncn1C"
measured_property = "half-life"
unit_descriptor = "min"
measured = 15

[[record]]
molecule = "CCCC(=O)OC[C@H](Cc1cncn1C)[C@H](CC)C(=O)OCc1ccc(COC(=O)[C@@H](CC)[C@H](COC(=O)CCC)Cc2cncn2C)cc1"
measured_property = "half-life"
unit_descriptor = "min"
measured = 11

[[record]]
molecule = "CC[C@H](C(=O)OCc1ccccc1)[C@H](COC(=O)c1cccc(Cl)c1)Cc1cncn1C [3-chloro-benzoyl, benzyl, reference compound]"
measured_property = "half-life"
unit_descriptor = "min"
measured = 22


[P] CCC(=O)OC[C@H](Cc1cncn1C)[C@H](CC)C(=O)OCc1ccc(COC(=O)[C@@H](CC)[C@H](COC(=O)CC)Cc2cncn2C)cc1
[Q] CC[C@H](C(=O)OCc1ccccc1)[C@H](COC(C)=O)Cc1cncn1C [acetyl, benzyl, reference compound]
q: When the recorded half-life values are compared, which is smaller: that of P or that of Q ? Write down the label attached to your selection.
a: P
(P: 6 min, Q: 16 min)

Data provenance: patent EP0559700B1
